# SYSTEM_UNDER_TEST: D(1A) dopamine receptor (Rattus norvegicus)
# Sequence (P18901 whole entry): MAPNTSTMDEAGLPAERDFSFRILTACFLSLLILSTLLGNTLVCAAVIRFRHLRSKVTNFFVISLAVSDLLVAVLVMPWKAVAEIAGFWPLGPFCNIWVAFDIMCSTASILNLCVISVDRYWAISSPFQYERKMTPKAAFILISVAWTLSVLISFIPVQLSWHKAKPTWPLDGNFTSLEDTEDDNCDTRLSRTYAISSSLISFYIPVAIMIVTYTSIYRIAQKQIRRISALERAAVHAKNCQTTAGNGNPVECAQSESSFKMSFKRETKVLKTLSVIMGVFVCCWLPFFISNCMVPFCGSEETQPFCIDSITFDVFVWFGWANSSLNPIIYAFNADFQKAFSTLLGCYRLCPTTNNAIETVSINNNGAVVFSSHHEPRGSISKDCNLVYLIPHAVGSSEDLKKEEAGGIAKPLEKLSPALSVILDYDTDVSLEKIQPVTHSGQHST
# EXPERIMENT_SUMMARY: In vivo binding affinity against dopamine (D1) receptor in rat caudate-putamen tissue using [3H]SCH-23390 as radioligand
# Type: organism-based
MEASURED_ENDPOINT: IC50

INSERT INTO assay_data (compound, measured_endpoint, result) VALUES
  ('CCN1CCC[C@H]1CNC(=O)c1c(OC)ccc(I)c1O [IOLOPRIDE]', 'IC50', '> 10 µM');
